target: GSK3β kinase (Homo sapiens (Human)); assay: GSK3β kinase assay (Ser/Thr 09 peptide Z-lyte FRET); type: biochemical; details: read-out: EC50 (method: IC50)
Sequence (P49841 whole entry): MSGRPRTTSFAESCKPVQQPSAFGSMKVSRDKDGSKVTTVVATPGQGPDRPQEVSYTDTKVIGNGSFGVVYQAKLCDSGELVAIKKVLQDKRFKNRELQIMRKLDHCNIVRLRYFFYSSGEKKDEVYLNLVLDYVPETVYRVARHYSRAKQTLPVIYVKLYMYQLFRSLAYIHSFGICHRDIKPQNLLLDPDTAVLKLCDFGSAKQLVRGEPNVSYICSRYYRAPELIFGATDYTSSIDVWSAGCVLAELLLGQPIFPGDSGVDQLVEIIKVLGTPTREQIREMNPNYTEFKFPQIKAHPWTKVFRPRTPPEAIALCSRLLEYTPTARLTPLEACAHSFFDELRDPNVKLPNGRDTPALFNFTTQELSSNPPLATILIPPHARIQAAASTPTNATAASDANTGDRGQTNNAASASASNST
pIC50: −log10 of the molar value.
Form field: pIC50 (one value per entry).
test readout: pIC50

> print(dat)
                            structure.string                          test.target  relation.symbol  reading
 1  C[C@H]1C[C@H](NC(=O)c2n[nH]c3ccc(-c4cnn(C)c4)cc23)CCN1CC(C)(C)F  GSK3β kinase (Homo sapiens (Human))                =     8.15
 2  Cc1nc(-c2ccc3[nH]nc(C(=O)Nc4ccc(OC5CCN(C)CC5)cc4)c3c2)cs1  GSK3β kinase (Homo sapiens (Human))                =     5.30
 3  Cn1cc(-c2cc(Cl)c3[nH]nc(C(=O)NC4CCN(CC(C)(C)F)CC4)c3c2)cn1  GSK3β kinase (Homo sapiens (Human))                <     5.00
 4  CNC(=O)c1ccc(NC(=O)c2n[nH]c3ccc(-c4cnn(C5CCN(C)CC5)c4)cc23)cn1  GSK3β kinase (Homo sapiens (Human))                =     6.20
 5  O=C(N[C@@H]1CCCC[C@H]1F)c1n[nH]c2ccc(-c3cnn(C4CC4)c3)cc12  GSK3β kinase (Homo sapiens (Human))                =     7.42
 6  CN1CCC(Oc2cccc(NC(=O)c3n[nH]c4cc(F)c(-c5cnn(C)c5)cc34)c2)CC1  GSK3β kinase (Homo sapiens (Human))                =     7.10
 7  CC(C)CN1CC[C@H](NC(=O)c2n[nH]c3c(F)cc(-c4cnn(C)c4)cc23)[C@@H](F)C1  GSK3β kinase (Homo sapiens (Human))                =     6.80
 8  CN1CCC(n2cc(-c3cc4c(C(=O)Nc5ccc(OC(F)F)cc5)n[nH]c4cc3F)cn2)CC1  GSK3β kinase (Homo sapiens (Human))                =     5.89
 9  Cn1cc(-c2cc3c(C(=O)Nc4ccc(CN5CCOCC5)cc4)n[nH]c3cc2F)cn1  GSK3β kinase (Homo sapiens (Human))                =     7.59
10  CC(C)CN1CC[C@@H](NC(=O)c2n[nH]c3ccc(-c4cnn(C)c4)cc23)[C@H](F)C1  GSK3β kinase (Homo sapiens (Human))                =     7.51
11  CN1CCC(n2cc(-c3cc4c(C(=O)Nc5cncc(F)c5)n[nH]c4cc3F)cn2)CC1  GSK3β kinase (Homo sapiens (Human))                =     6.63
12  Cn1cc(-c2cc3c(C(=O)Nc4ccc(OCCN5CCCC5)cc4)n[nH]c3cc2F)cn1  GSK3β kinase (Homo sapiens (Human))                =     7.42

====

biological target: UniProt:P49841; experiment: GSK3β kinase assay (Ser/Thr 09 peptide Z-lyte FRET); assay type: biochemical; conditions: read-out: EC50 (method: IC50)
// reported IC50 per item
test readout: IC50 (nM)

> print(dat)
                                   molecule     test.target  reading
1  Cc1ncc(-c2ccc3[nH]nc(C(=O)NC4CCC(F)(F)CC4)c3c2)n1C [Compound 22]  UniProt:P49841       61
2  Cc1nn(C)cc1-c1ccc2[nH]nc(C(=O)NC3CCC(F)(F)CC3)c2c1 [Compound 21]  UniProt:P49841      903
3  Cn1ncc(-c2ccc3[nH]nc(C(=O)NC4CCN(CC(C)(C)F)CC4)c3c2)c1C(F)F [Compound 41]  UniProt:P49841       76

Each recorded value in this set is attributed to patent US10934297B2.
